target: human GCG receptor (human, UniProt P47871 26-477); assay: cell-based or functional assay
Sequence (P47871 26-477): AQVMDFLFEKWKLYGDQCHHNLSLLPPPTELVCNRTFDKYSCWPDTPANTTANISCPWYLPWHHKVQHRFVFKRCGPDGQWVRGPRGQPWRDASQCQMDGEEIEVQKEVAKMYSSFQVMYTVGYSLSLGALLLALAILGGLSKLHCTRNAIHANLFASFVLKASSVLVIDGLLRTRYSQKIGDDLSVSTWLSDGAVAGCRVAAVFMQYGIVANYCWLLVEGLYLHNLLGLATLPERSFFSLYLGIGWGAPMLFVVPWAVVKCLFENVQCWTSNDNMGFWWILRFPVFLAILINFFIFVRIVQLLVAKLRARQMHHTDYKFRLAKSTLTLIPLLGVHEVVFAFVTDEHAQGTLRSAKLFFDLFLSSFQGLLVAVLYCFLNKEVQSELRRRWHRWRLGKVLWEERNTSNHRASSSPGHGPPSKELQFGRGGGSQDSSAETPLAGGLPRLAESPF
Bridges are numbered along the chain shown (N, C = ends). Where no end group is shown, it is not given here. [ ]: non-standard residue; d: D form. The star is where a group is joined. Acetyl(2-(4-imidazolyl)) = O=C(Cc1c[nH]cn1)*; Aib = CC(C)(N)C(=O)O
Here the recorded In vitro activity (%) vs. Glucagon, cAMP EC50 is given for each entry.
quantity: In vitro activity (%) vs. Glucagon, cAMP EC50

# binder, comparator, value
data = [
    ("Y[Aib]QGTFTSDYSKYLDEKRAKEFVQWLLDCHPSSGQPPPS (bridge 16-20; ends not checked) [triple agonist of SEQ ID NO: 97]", "=", 62.8),
    ("H[Aib]QGTFTSDYSKYLDEKRAQEFVCWLLAQKGKKNDWKHNIT [triple agonist of SEQ ID NO: 28]", "=", 1.6),
    ("{Acetyl(2-(4-imidazolyl))}-[Aib]QGTFTSDYSICMDEIHQKDFVNWLLNTK (bridge 15-19) [triple agonist of SEQ ID NO: 49]", "<", 0.1),
]
